assay: molar heat capacity at constant pressure; conditions: 370 K; 101.33 kPa; Liquid; DSC
Entries and their molar heat capacity at constant pressure
Field format: number, assumed J/K/mol, no unit text.

// below: answered molecules
CCCCCCCC(=O)OCC(COC(=O)CCCCCCC)OC(=O)CCCCCCC [1,2,3-propanetriol trioctanoate] = 990.7
CCCCCCCCCCCCCC(=O)OCC(COC(=O)CCCCCCCCCCCCC)OC(=O)CCCCCCCCCCCCC [1,2,3-propanetriyl tri(tetradecanoate)] = 1592
CCCCCCCCCC(=O)OCC(COC(=O)CCCCCCCCC)OC(=O)CCCCCCCCC [1,2,3-propanetriyl tridecanoate] = 1189

The recorded molar heat capacity at constant pressure for entry CCCCCCCCCCCC(=O)OCC(COC(=O)CCCCCCCCCCC)OC(=O)CCCCCCCCCCC [1,2,3-propanetriyl tridodecanoate] equals 1396

Ref: the NIST ThermoML archive (doi:10.1016/j.jct.2017.07.006)
